System: IL-1β production
Test: Inhibition of the production of IL-1β in vitro in human whole blood (LPS stimulation, ELISA)
Type: cell-based
Conditions: lipopolysaccharide 10 μg/ml, 6 hours at 37° C., plasma ELISA, read-out: Inhibitory Effect on IL-1β Production IC50
readout label: pIC50
The scale used: pIC50 is minus the common logarithm of the concentration in molar units.

Give reported pIC50 for OC1(c2n[nH]c(-c3ccc(F)cc3)c2-c2ccncc2)CCN2CCCC2C1 (racemic) (IL-1β production) 7.46

Origin of values: patent US7091352B2
